Assay Procedure: endothelial E-selectin expression blockers – imaging, HUVEC, immunofluorescence, MLSMR starter and 10KST1 sets, primary screen (AID 487);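 further: 100% = median nuclei count of all wells on the same plate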
Condition Description: HUVEC TNFalpha-induced E-selectin immunofluorescence imaging, at 2 µM; measured here: cell number, toxicity
Catalogue of compounds with associated nuclei count
Answer with a number only, understood to be in %.

Reported nuclei count for COc1ccc(N(CC(=O)NCCSC(C)(C)C)S(C)(=O)=O)c(OC)c1 was 120

// sample COc1ccccc1NC(=O)C1=C(C)Nc2nnnn2C1c1ccccc1OC (centres undefined) , its nuclei count was 82.2

Summary for this compound, COc1ccc(Nc2ncnc3c2cnn3-c2ccccc2)cc1OC : nuclei count is 103

The recorded nuclei count for entry N#Cc1c2n(c(=S)n(-c3ccccn3)c1=O)CCCCC2 equals 144
